Ref: the supplement of paper PMC6555819

For each entry below, report its PBM binding z-score value.
- Test system: PPARg homodimer (NR concentration 180 nM)
- test-name: PBM binding z-score (relative to random genomic background probes); higher = stronger binding; sequences stand for … in GC…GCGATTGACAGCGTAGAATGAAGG
Answers are plain numbers.

• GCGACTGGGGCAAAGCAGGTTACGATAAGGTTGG = 0.215
• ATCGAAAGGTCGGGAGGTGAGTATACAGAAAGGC = 1.74
• CCTATTTGTTGACCATAAGGGCAACCGAAGCTCG = 1.94
• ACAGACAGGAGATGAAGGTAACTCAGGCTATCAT = 0.572

I have 3 sequences here; please give me PBM binding z-score for each one.
1. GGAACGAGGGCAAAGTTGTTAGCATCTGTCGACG
2. CGCCAAAGTTCAAGGTAACGTAACAGAAAGCAGC
3. AATACAGGGTCATCGCAGGCCAGAGTACGCACAG

1: 0.469; 2: 1.95; 3: 1.94

I have 7 sequences here; please give me PBM binding z-score for each one.
1. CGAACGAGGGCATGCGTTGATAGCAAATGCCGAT
2. CCTACTGGGCCATCAGGTCATTGATATCAACGTT
3. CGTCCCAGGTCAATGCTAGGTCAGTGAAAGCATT
4. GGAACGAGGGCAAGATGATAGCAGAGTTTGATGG
5. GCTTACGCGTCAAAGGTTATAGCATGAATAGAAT
6. GATAAAGGGTCAAGGCCAGAGTACGCGTATTGAT
7. AGAATGAGGTTACGAAAGATCAGGGAAACGCTTG

1. 0.165
2. 1.26
3. 3.66
4. 0.136
5. 1.46
6. 3.16
7. 0.0598

###

- System: PXR:RXRa (NR concentration 270 nM, RXRa partner concentration 90 nM)
- test-name: PBM binding z-score (relative to random genomic background probes); higher = stronger binding; sequences stand for … in GC…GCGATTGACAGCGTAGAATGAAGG
Classify by measured PBM binding z-score: Fulfilled if it is equal to or exceeds 1, Not fulfilled if it is smaller.

Take a look at these entries with their results.
* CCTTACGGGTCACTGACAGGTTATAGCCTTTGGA | Fulfilled
* AGAATGAGGTTAAGACCAGGGAAACAGAATACAT | Fulfilled
* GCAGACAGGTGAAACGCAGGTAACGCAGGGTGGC | Not fulfilled
* ACATGTAGGTTAGCTGGGGTCATTCAGACTAGGC | Fulfilled
* CGAACTAGGTCATTGACAGGACGGTGAATAGTAA | Fulfilled
* GCTAGCAGGCCATTTGGGTTACTCAATGACGGGC | Not fulfilled
* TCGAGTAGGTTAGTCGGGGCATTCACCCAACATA | Not fulfilled
* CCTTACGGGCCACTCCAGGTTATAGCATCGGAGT | Not fulfilled
* TCTTGTAGATCTAGCAGGTTAAGAAAGCCTGAGT | Not fulfilled
* CGTCAAAGTTCAAGATAACGTAACAGAAAGCAGC | Fulfilled

Does PBM binding z-score meet or surpass 1 for CCTGCTGGGCCATTCAGAGGTCATTGATCATATG ?
Fulfilled

Does PBM binding z-score meet or surpass 1 for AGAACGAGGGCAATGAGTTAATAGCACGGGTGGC ?
Fulfilled

Does PBM binding z-score meet or surpass 1 for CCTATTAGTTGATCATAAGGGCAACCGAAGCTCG ?
Not fulfilled

Does PBM binding z-score meet or surpass 1 for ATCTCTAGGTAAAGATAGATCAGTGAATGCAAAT ?
Not fulfilled

Does PBM binding z-score meet or surpass 1 for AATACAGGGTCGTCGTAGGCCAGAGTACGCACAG ?
Fulfilled

Does PBM binding z-score meet or surpass 1 for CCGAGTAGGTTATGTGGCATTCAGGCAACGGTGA ?
Not fulfilled

Does PBM binding z-score meet or surpass 1 for ACAATGAGGTTAAGATCAGGGAAACAGAATACAT ?
Fulfilled

Does PBM binding z-score meet or surpass 1 for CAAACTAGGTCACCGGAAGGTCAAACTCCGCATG ?
Fulfilled

###

- Test system: PPARg:RXRa (NR concentration 180 nM, RXRa partner concentration 90 nM)
- test-name: PBM binding z-score (relative to random genomic background probes); higher = stronger binding; sequences stand for … in GC…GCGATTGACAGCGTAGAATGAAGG
For each entry below, report its PBM binding z-score value.
Give bare numbers.

Sample records with PBM binding z-score:
- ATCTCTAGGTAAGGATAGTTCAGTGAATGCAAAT: 0.279
- GCTGCTAGGTCAGGTTGGTCACCTAACGGGTACG: 0.627
- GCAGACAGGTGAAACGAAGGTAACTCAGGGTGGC: 0.836

I have 8 sequences here; please give me PBM binding z-score for each one.
1. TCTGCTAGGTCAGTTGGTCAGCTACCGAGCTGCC
2. GCTTGTAGATCAAGGTTAATAAAGACTAAGCTAA
3. TCTATTAGTTCATTAGGGCAACCGAAACAGCGGA
4. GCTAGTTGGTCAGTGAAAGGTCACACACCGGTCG
5. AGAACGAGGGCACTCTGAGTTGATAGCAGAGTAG
6. CGTAGTTGGTCAAGGTCACACACGCTATAGGTAC
7. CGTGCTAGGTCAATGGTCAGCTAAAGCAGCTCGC
8. TCATATAGGTAAAAGGTGACAGTCGGTGTGGTAA

0.156
1.29
1.21
4.64
1.21
3.4
5.04
9.43

I have 4 sequences here; please give me PBM binding z-score for each one.
1. CCTCGGAGGACAACAGGAGGTCAGAGATGCCAGA
2. CCAGCTAGGTCATGGTCAGCTAATCTACAGTATG
3. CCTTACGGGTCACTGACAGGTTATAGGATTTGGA
4. GGAACGAGGGCATTCGAGTTGACAGCATGGCGAT

[0.895, 2.98, 4.36, 0.875]

###

For each entry below, report its PBM binding z-score value.
- Tested on: RXRa homodimer (NR concentration 180 nM)
- test-name: PBM binding z-score (relative to random genomic background probes); higher = stronger binding; sequences stand for … in GC…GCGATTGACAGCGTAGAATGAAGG
Numbers only.

I have 4 sequences here; please give me PBM binding z-score for each one.
1. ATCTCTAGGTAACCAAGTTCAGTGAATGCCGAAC
2. TCGAGTAGGTTGCCAATGGGGCATTCAGCTTTCT
3. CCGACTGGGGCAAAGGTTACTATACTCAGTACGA
4. TTACCAAGGAGAGCTGAGGTCGTTGATCCAACTC

1: 0.572; 2: -0.482; 3: 2.8; 4: 0.657

I have 2 sequences here; please give me PBM binding z-score for each one.
1. CGTAAAAGTTCAACTAAGGTAACGTAAAGCACGC
2. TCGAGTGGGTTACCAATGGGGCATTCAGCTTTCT

4.42
0.312

###

- System: LXRa:RXRa (NR concentration 270 nM, RXRa partner concentration 90 nM)
- test-name: PBM binding z-score (relative to random genomic background probes); higher = stronger binding; sequences stand for … in GC…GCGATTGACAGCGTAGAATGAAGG
For each entry below, report its PBM binding z-score value.

• AGAATGAGGTTATACGTTGATCAGGGAAGAAAGT = 1.89
• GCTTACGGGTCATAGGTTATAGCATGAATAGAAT = 4.32
• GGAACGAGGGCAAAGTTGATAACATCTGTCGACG = 1.1
• AGAATGAGGTTACGATCAGGGAAACAGAATACAT = 1.94
• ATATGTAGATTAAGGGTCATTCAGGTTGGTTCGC = 4.24
• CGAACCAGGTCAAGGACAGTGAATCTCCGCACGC = 2.98
• CGTCCAAGGTCATAGGAGGTCAGTTAAGACAGAT = 7.74
• GCTACTAGGTCAGGTTGGTCAGCTAACGGGTACG = 0.811
• CCTAGCAGGCCAGTGTCACTCAAGCATTTCGCTT = -0.253
• GGAACGAGGGCAAAGTTGATATCATCTGTCGACG = 0.812

I have 7 sequences here; please give me PBM binding z-score for each one.
1. TCATATAGGTAAAAAGGTGAAAGTCCGTAAGTTA
2. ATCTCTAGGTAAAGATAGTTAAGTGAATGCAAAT
3. TCTCGGAGTACACGAAAGGTCAGAGCTCGACATC
4. TCTTGTAGATGAGCAGGTTAAGAAAGCTGGCCAA
5. TTACCAAGGTGAATGTCGTTGATCCCTCTGTAGA
6. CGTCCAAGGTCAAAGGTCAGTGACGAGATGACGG
7. TCTCGGAGGACACTAAGGTCAGAGCTTTCCAGAG

[1.85, 0.0561, 3.69, -0.248, 0.993, 6.97, 1.63]
